# tgt: 1-phosphatidylinositol 4,5-bisphosphate phosphodiesterase beta-3 (Homo sapiens) (UniProt Q01970)
# Sequence (Q01970 whole entry, looked up): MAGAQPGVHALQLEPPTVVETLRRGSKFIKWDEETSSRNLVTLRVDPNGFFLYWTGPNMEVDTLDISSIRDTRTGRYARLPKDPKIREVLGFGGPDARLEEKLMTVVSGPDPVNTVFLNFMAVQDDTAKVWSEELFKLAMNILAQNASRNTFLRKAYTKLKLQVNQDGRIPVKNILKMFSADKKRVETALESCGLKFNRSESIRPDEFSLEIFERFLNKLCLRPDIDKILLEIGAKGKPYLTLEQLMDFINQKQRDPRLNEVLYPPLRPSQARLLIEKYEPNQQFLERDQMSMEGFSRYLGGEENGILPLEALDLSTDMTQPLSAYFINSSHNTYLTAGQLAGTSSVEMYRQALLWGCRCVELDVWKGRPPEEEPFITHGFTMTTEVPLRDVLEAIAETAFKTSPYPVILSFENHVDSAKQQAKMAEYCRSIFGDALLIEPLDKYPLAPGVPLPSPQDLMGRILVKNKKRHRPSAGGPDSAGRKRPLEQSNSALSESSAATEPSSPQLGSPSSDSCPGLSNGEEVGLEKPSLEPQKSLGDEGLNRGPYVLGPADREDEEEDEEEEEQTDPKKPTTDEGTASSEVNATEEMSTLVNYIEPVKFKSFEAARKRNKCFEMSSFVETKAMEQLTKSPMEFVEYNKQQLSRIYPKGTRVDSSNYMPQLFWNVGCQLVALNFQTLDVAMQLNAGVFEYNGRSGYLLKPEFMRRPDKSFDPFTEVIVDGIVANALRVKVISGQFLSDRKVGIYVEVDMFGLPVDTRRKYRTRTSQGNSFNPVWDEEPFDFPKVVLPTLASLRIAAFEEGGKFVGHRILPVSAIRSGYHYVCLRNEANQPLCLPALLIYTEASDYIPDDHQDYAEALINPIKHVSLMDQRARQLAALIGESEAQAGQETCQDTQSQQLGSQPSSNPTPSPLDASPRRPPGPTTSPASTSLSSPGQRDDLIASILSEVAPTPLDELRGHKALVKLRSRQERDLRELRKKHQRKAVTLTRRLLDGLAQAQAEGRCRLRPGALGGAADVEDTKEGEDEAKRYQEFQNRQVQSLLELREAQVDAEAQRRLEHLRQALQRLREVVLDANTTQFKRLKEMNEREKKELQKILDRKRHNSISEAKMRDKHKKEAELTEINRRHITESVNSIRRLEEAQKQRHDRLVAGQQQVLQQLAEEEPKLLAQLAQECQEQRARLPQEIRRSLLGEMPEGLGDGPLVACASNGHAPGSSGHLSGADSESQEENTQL
# measurement.notes: phospholipase C beta3 enzyme inhibition – biochemical, fluorescence, primary screen (AID 720704);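 also: 0% = median of compound wells on plate and 100% = full blocker control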
# reported.conditions: Purified PLC-beta3, fluorogenic substrate, at 12.2 µM, active compounds read high
Among all 370,000 compounds or so, about 660 (0.18%) were called active. This is one part of a sample in which actives are shown more often than they occur.
observable: inhibition

[[record]]
molecule = "CCn1c(/C=C/Nc2ccccc2)[n+](CC)c2ccc(C(=O)OCC(F)(F)F)cc21"
obs_value = "13.1% (active)"

[[record]]
molecule = "O=S(=O)(NCCSc1ccccn1)c1ccc(Cl)cc1"
obs_value = "4.09% (inactive)"

[[record]]
molecule = "Cc1ccc(NC(=O)C(C)OC(=O)Cc2c[nH]c3ccccc23)cc1S(=O)(=O)N1CCOCC1 (centres undefined)"
obs_value = "-3.66% (inactive)"

[[record]]
molecule = "CCOC(=O)C1CCN(C(=O)c2cccc(S(=O)(=O)N(CC)c3ccccc3)c2)CC1"
obs_value = "-9.7% (inactive)"

[[record]]
molecule = "COc1ccc(NC(=O)CCC(=O)N2CCN(S(=O)(=O)c3ccc(C)cc3)CC2)c(OC)c1"
obs_value = "-5.05% (inactive)"

[[record]]
molecule = "CC(C)Cn1c(SCC(=O)Nc2ccc(Cl)cc2F)nc(O)cc1=O"
obs_value = "-1.44% (inactive)"

[[record]]
molecule = "O=C1C(=O)N(c2ccccc2)C(c2ccccc2)C1c1ccccc1 (centres undefined)"
obs_value = "-283% (inactive)"

[[record]]
molecule = "O=C1NCC(Nc2ccccc2)C(=O)N1 (centres undefined)"
obs_value = "1.2% (inactive)"

[[record]]
molecule = "CCN1CN(Cc2ccccc2)CNC1=S"
obs_value = "6.18% (inactive)"

[[record]]
molecule = "Cc1ccccc1N1CCN(C2CCCN(C(=O)c3cn4c(C)cccc4n3)C2)CC1 (centres undefined)"
obs_value = "-10.2% (inactive)"

[[record]]
molecule = "Cc1ccc(S(=O)(=O)N2CCC(C(=O)N[C@@H](C)C(=O)NCc3ccco3)CC2)cc1"
obs_value = "0.13% (inactive)"

[[record]]
molecule = "CCOC(=O)c1cc2ccccc2n1CC(=O)c1ccccc1"
obs_value = "-2.72% (inactive)"

[[record]]
molecule = "O=C(c1ccc(F)cc1)N1CCCC(C(=O)N2CCCCC2)C1 (centres undefined)"
obs_value = "-6.9% (inactive)"

[[record]]
molecule = "O=C(NC(CC(=O)N1CCN(c2ccccc2)CC1)c1ccccc1)c1ccccc1Cl (centres undefined)"
obs_value = "2.68% (inactive)"

[[record]]
molecule = "CCOc1ccc(C(=O)NCCCN2CCCC2=O)cc1"
obs_value = "2.32% (inactive)"

[[record]]
molecule = "O=C(COc1ccc(S(=O)(=O)N2CCCC2)cc1[N+](=O)[O-])N1CCCCC1"
obs_value = "6.09% (inactive)"

[[record]]
molecule = "Cc1ccsc1C(=O)N[C@@H](C)c1nnc2ccccn12"
obs_value = "-1.93% (inactive)"

[[record]]
molecule = "Oc1c(CN2CCCC2)cc(COCc2ccccc2)c2cccnc12"
obs_value = "16.5% (active)"

[[record]]
molecule = "Cc1ccc(S(=O)(=O)N2CCC(C(=O)OCC(=O)N(C)c3ccccc3)CC2)cc1C"
obs_value = "-0.47% (inactive)"

[[record]]
molecule = "COc1ccc(S(=O)(=O)N2CCC(C(=O)OCC(=O)c3ccccc3)CC2)cc1[N+](=O)[O-]"
obs_value = "10.8% (active)"

[[record]]
molecule = "O=c1ccc2c(-c3ccccc3S(=O)(=O)O)c3ccc(O)c(O)c3oc-2c1O"
obs_value = "11.7% (active)"

[[record]]
molecule = "OCC1OC(n2cnc3c(N4CCCC4)ncnc32)C(O)C1O (centres undefined)"
obs_value = "-4.64% (inactive)"

[[record]]
molecule = "CCOC(=O)C1C(c2ccc(OC)c(OC)c2)c2c([nH][nH]c2=O)CC1(C)O (centres undefined)"
obs_value = "-7.78% (inactive)"

[[record]]
molecule = "O=C(NCCCN1CCCC1=O)c1cccc(S(=O)(=O)NCc2ccccc2)c1"
obs_value = "-4.88% (inactive)"

[[record]]
molecule = "CCN1C(=O)CS/C1=N\\c1nccs1"
obs_value = "0.11% (inactive)"

[[record]]
molecule = "COC(=O)c1ccc(COC(=O)c2cnccn2)cc1"
obs_value = "4.2% (inactive)"

[[record]]
molecule = "CC1CCN(S(=O)(=O)c2ccc(S(=O)(=O)NCc3cccnc3)cc2)CC1"
obs_value = "-6.19% (inactive)"

[[record]]
molecule = "CCCc1nc2ccccc2n1C(C)C(=O)NC(C)(C)C (centres undefined)"
obs_value = "1.17% (inactive)"

[[record]]
molecule = "CO[C@@H]1CN(C)C(=O)c2cc(NC(=O)Nc3cc(F)ccc3F)ccc2OC[C@H](C)N(C(=O)c2ccccn2)C[C@@H]1C"
obs_value = "-2.49% (inactive)"

[[record]]
molecule = "CC(=O)c1c(C)[nH]c(C(=O)N2CCN(S(=O)(=O)c3ccc(F)c(F)c3)CC2)c1C"
obs_value = "-2.62% (inactive)"

[[record]]
molecule = "CCCC/S(C)=N/S(=O)(=O)c1ccc(C)cc1 (centres undefined)"
obs_value = "3.14% (inactive)"

[[record]]
molecule = "CC1(C)CN(CCc2ccccc2)C(=O)[C@H]1CC(=O)Nc1ccc(Br)cc1"
obs_value = "1.65% (inactive)"

[[record]]
molecule = "COC(=O)c1ccccc1-n1cc(COC(=O)NCCc2ccccc2)nn1"
obs_value = "-1.19% (inactive)"

[[record]]
molecule = "COc1ccc(OC)c(NC(=O)CSc2nc3cccnc3n2C)c1"
obs_value = "6.47% (inactive)"

[[record]]
molecule = "CCc1c(Nc2ccccc2Cl)nc(N)[nH]c1=O"
obs_value = "1.61% (inactive)"

[[record]]
molecule = "COc1ccc(C)cc1NC(=O)CSc1nnc(CC(=O)Nc2ccccc2F)n1C"
obs_value = "-4.5% (inactive)"

[[record]]
molecule = "CCC(=O)c1ccc(OCC(=O)OCC(=O)N2CCc3ccccc3C2)cc1"
obs_value = "-10.2% (inactive)"

[[record]]
molecule = "COc1ccc(C(=O)O)cc1S(=O)(=O)NCc1cccnc1"
obs_value = "-3.06% (inactive)"

[[record]]
molecule = "COc1ccc(NC(=O)C[C@H]2C(=O)N(CCc3ccccc3)C[C@@H]2C)cc1"
obs_value = "4.39% (inactive)"

[[record]]
molecule = "COc1ccc(CC(NC(C)=O)C(=O)NC2CCN(C(=O)c3ccc(OC)c(OC)c3)CC2)cc1OC (centres undefined)"
obs_value = "2.51% (inactive)"

[[record]]
molecule = "CCCOc1cccc(C(=O)NCCCNC(=O)c2cccnc2)c1"
obs_value = "-4.69% (inactive)"

[[record]]
molecule = "O=S(=O)(c1ccc(F)cc1)N1CCN=C1SCc1cccc(F)c1"
obs_value = "-7.5% (inactive)"

[[record]]
molecule = "Nc1cc(N2CCCCCC2)c2nonc2c1[N+](=O)[O-]"
obs_value = "-10.7% (inactive)"

[[record]]
molecule = "CCc1cc2c(=O)c(-c3ccon3)c(N)oc2cc1OC"
obs_value = "-1.51% (inactive)"

